Ki values for the compounds below.
- experimental-target: purified human autoBACE-2 (Homo sapiens)
- test-details: BACE-2 Assay (BACE-HTRF assay)
- Type: biochemical
- condition-description: Ki calculated from IC50 using the Cheng-Prusoff equation; QSY7-EISEVNLDAEFC-Eu-amide substrate 200 nM, pH 5.0; read-out: BACE2 Ki
Numeric answer only, unit nM assumed.

Cc1nc(C(=O)Nc2ccc3c(c2)[C@]2(CCO3)CS(=O)(=O)C(C)(C)C(=N)N2)co1 [Example C-2] :: 3
CC1(C)C(=N)N[C@@]2(CCCc3ccc(NC(=O)c4ccc(Cl)cn4)cc32)CS1(=O)=O [Example F-1] :: 3

Shifting focus to the compound that follows.
Quote Ki with test system purified human autoBACE-2 (Homo sapiens) for CC1(C)C(=N)N[C@@]2(CCOc3ccc(NC(=O)c4ccc(OC(F)(F)F)cn4)cc32)CS1(=O)=O [Example C-11]
41

###

- experimental-target: purified human autoBACE-2 (Homo sapiens)
- Sequence (Q9Y5Z0 63-473 limits assumed): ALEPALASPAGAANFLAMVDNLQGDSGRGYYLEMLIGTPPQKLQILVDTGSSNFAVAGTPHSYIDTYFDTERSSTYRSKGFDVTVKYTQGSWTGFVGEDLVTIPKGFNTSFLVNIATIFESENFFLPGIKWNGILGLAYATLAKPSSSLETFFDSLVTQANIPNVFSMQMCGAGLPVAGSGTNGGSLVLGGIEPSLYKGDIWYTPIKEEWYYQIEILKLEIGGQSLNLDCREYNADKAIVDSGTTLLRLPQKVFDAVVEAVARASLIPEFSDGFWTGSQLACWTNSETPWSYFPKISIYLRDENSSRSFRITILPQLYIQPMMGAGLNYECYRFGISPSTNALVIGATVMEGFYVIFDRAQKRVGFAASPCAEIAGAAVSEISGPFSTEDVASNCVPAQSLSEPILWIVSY
Ki values for the compounds below.
Numeric answer only, unit nM assumed.

CC1(C)C(=N)N[C@@]2(CCCc3ccc(NC(=O)c4ccn(C(F)F)n4)cc32)CS1(=O)=O :: 1
CC1(C)C(=N)N[C@@]2(CCCc3ccc(NC(=O)c4ccc(OC(F)(F)F)cn4)cc32)CS1(=O)=O :: 51
COc1cnc(C(=O)Nc2ccc3c(c2)[C@]2(CCC3)CS(=O)(=O)C(C)(C)C(=N)N2)cn1 :: 57
C#CCOc1ccc(C(=O)Nc2ccc3c(c2)[C@]2(CCO3)CS(=O)(=O)C(C)(C)C(=N)N2)nc1 :: 48

Please indicate Ki recorded for CC#CCOc1ccc(C(=O)Nc2ccc3c(c2)[C@]2(CCO3)CS(=O)(=O)C(C)(C)C(=N)N2)nc1
45

The measurements presented in this section are drawn from patent US9725468B2.
